These data points were gathered from ChEMBL document CHEMBL1148237.

Molecular target: Integrin alpha-4/beta-1 (Homo sapiens, UniProt P05556+P13612)
Sequence (P05556 whole entry): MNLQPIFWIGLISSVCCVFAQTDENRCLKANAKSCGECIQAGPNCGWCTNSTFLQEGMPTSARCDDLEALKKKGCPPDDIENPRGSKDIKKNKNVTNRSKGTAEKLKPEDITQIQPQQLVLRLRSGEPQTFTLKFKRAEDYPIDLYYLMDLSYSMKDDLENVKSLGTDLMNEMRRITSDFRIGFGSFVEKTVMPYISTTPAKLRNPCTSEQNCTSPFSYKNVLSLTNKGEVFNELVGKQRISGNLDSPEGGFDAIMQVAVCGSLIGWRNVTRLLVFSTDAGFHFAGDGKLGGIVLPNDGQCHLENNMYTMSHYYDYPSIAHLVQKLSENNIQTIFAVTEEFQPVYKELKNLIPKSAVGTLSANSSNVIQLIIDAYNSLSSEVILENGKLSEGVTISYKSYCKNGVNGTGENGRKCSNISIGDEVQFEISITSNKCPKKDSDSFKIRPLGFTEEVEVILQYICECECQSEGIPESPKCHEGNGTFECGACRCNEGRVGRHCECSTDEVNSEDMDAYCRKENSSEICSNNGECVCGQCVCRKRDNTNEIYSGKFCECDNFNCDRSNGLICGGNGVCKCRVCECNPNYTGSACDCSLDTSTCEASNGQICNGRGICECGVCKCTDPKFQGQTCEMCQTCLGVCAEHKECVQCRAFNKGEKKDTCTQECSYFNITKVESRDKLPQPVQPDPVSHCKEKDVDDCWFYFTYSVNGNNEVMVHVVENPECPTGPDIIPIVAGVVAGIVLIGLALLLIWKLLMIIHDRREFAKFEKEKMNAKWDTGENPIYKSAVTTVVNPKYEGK
Sequence (P13612 whole entry): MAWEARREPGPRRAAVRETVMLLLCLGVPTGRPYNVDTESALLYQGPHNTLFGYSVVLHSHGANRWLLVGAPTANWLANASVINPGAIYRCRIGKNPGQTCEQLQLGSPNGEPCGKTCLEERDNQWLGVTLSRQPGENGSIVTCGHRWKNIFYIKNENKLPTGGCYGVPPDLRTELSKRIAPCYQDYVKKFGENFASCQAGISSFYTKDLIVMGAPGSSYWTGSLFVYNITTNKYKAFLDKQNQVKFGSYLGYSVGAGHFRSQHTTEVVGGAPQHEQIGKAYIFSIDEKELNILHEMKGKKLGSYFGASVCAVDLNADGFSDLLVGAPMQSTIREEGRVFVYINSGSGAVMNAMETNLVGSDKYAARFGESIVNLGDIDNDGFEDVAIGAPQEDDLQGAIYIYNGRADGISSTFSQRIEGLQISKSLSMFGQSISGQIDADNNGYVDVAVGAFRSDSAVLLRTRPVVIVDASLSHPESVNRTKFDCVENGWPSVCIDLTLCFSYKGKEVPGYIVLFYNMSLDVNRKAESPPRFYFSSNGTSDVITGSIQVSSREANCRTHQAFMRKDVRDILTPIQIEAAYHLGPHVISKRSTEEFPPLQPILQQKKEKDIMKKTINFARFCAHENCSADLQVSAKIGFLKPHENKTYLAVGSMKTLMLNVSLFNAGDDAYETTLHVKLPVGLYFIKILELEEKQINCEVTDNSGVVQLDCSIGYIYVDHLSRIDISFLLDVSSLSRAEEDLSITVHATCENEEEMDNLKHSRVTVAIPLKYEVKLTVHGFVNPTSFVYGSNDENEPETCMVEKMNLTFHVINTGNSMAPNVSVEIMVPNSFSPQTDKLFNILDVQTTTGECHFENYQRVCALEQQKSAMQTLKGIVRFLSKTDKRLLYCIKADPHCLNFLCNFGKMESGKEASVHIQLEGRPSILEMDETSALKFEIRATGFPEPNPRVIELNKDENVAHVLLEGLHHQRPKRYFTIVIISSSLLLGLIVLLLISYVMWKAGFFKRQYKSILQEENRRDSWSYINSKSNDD
Assay: Inhibition of [Ca2+]/Mg2+ unactivated state of very late antigen 4 (VLA-4)
Assay type: protein-complex assay
A collection of compounds and their measured IC50
readout label: IC50 (nM)

[[record]]
cpd_smiles = "O=C(N[C@@H](Cc1ccc2oc(-c3c(Cl)cccc3Cl)nc2c1)C(=O)O)c1c(Cl)cncc1Cl"
experimental_value = 21

[[record]]
cpd_smiles = "O=C(N[C@@H](Cc1ccc2[nH]c(-c3c(Cl)cccc3Cl)nc2c1)C(=O)O)c1c(Cl)cccc1Cl"
experimental_value = 22

[[record]]
cpd_smiles = "O=C(O)[C@H](Cc1ccc2nc(-c3c(Cl)cccc3Cl)oc2c1)NC(=O)[C@@H]1CCN1S(=O)(=O)c1cc(Cl)cc(Cl)c1"
experimental_value = 33

[[record]]
cpd_smiles = "COc1cccc(OC)c1-c1ccc(C[C@H](NC(=O)[C@]2(C)CCN2S(=O)(=O)c2cc(Cl)cc(Cl)c2)C(=O)O)cc1"
experimental_value = 0.27

[[record]]
cpd_smiles = "O=C(O)[C@H](Cc1ccc2oc(-c3c(Cl)cccc3Cl)nc2c1)NC(=O)[C@@H]1CCN1S(=O)(=O)c1cc(Cl)cc(Cl)c1"
experimental_value = 3.6

[[record]]
cpd_smiles = "O=C(Nc1ccc(C[C@H](NC(=O)[C@@H]2CCN2S(=O)(=O)c2cc(Cl)cc(Cl)c2)C(=O)O)cc1)c1c(Cl)cccc1Cl"
experimental_value = 0.31

[[record]]
cpd_smiles = "O=C(N[C@@H](Cc1ccc2oc(-c3c(Cl)cccc3Cl)nc2c1)C(=O)O)c1c(Cl)cccc1Cl"
experimental_value = 52


----------
Biological target: Integrin alpha-4/beta-1 (Homo sapiens, UniProt P05556+P13612)
Experiment: Inhibition of Mn2+ activated state of very late antigen 4 (VLA-4)
Assay type: protein-complex assay
pIC50: −log10 of the molar value.
// reported pIC50 for each item listed
readout label: pIC50

[[record]]
cpd_smiles = "O=C(O)[C@H](Cc1ccc2oc(-c3c(Cl)cccc3Cl)nc2c1)NC(=O)[C@@H]1CCN1S(=O)(=O)c1cc(Cl)cc(Cl)c1"
experimental_value = 9.13

[[record]]
cpd_smiles = "O=C(N[C@@H](Cc1ccc2oc(-c3c(Cl)cccc3Cl)nc2c1)C(=O)O)c1c(Cl)cncc1Cl"
experimental_value = 9.47

[[record]]
cpd_smiles = "O=C(O)[C@H](Cc1ccc2nc(-c3c(Cl)cccc3Cl)oc2c1)NC(=O)[C@@H]1CCN1S(=O)(=O)c1cc(Cl)cc(Cl)c1"
experimental_value = 8.77

